Ref: patent US20250051316A1

Experiment: Pharmacokinetic assay of Balb/c mice, plasma and brain, oral
Format: in vivo
Conditions: male, mouse, Plasma, p.o. 5 mg/kg
Observed property: half-life (h)
Please give a number only; it is taken to be in h.

[Q] So what does the record say about half-life for [2H]c1ccc(C2CNCCO2)cc1 (single isomer, unassigned) [Example 28-2, 2-(phenyl-4-d)morpholine] ?
[A] 1.4

[Q] I'd like to know its half-life. The molecule in question is [2H]C1([2H])CO[C@H](c2ccc(F)cc2)CN1 (single isomer, unassigned) [Example 33-1, 2-(4-Fluorophenyl)morpholin-5,5-d2]
[A] 3.2

[Q] Recorded half-life of [2H]C1([2H])COC(c2cccc(C)n2)CN1 (single isomer, unassigned) [Example 10-2, 2-(6-Methylpyridin-2-yl)morpholin-5,5-d2] , please.
[A] 2.4

[Q] What value of half-life has been recorded for this entry: [2H]C1([2H])COC(c2cc(C)ccn2)CN1 (single isomer, unassigned) [Example 16-1, 2-(4-Methylpyridin-2-yl)morpholin-5,5-d2]
[A] 1.9

[Q] Can you share its half-life? I mean this molecule: [2H]c1ccnc([C@@H]2CNCCO2)c1 (single isomer, unassigned) [Example 7-2, 2-(pyridin-2-yl-4-d)morpholine]
[A] 0.8

[Q] // lookup half-life for [2H]c1ccc([C@H]2CNCCO2)nc1 (single isomer, unassigned) [Example 6-2, 2-(pyridin-2-yl-5-d)morpholine]
[A] 0.8

[Q] Which half-life is listed for Cc1nc([C@@H]2CNCCO2)ccc1F (single isomer, unassigned) [Example 19-2] ?
[A] 3.7

[Q] Entry [2H]C1([2H])CO[C@@H](c2ccc(F)cn2)CN1 (single isomer, unassigned) [Example 17-2, 2-(5-fluoropyridin-2-yl)morpholin-5,5-d2] : reported half-life = ?
[A] 1.3
